This section lists pKi readings for Cannabinoid receptor 1 (Rattus norvegicus, UniProt P20272).
Lab note — pKi values are minus log10 of concentrations in M.

Here are 2 molecules together with their reported answers.
INSERT INTO assay_data (compound_smiles, reported_value) VALUES
  ('CCCCCC(C)(C)c1ccc([C@H]2CCC[C@@H](O)C2)c(O)c1', 6.90),
  ('CCCCC(C)(C)c1ccc([C@H]2CCC[C@@H](O)C2)c(O)c1', 8.02);

Moving on to the next molecule.
Query: What pKi appears in the records for this molecule with Cannabinoid receptor 1 (Rattus norvegicus, UniProt P20272)? CCCCCCC(C)(C)c1cc(O)c2c(c1)OC(C)(C)[C@@H]1CCC(=O)C[C@@H]21
Sequence (P20272 whole entry): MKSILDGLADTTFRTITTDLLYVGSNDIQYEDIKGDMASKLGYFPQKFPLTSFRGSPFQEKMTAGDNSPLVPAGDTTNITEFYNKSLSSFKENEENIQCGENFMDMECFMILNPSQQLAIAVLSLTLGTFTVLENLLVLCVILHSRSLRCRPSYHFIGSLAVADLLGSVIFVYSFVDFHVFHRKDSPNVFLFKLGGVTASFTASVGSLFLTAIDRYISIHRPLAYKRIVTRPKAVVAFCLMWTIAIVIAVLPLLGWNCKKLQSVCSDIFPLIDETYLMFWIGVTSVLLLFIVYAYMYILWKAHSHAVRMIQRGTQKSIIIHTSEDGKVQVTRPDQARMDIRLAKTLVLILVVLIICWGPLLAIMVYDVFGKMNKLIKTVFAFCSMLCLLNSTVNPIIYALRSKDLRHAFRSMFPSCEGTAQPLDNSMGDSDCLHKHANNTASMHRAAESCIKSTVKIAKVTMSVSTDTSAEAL
Reply: 7.65
